Target: T1, Murine B7-H4-Fc (Mouse B7H4 ECD, Fc_6His) (mouse, UniProt Q7TSP5 25-257)
T1 construct: extracellular domain; also called mouse B7-H4-Fc; FcHis6 tagged murine B7-H4
T1 sequence (Q7TSP5 whole entry, looked up): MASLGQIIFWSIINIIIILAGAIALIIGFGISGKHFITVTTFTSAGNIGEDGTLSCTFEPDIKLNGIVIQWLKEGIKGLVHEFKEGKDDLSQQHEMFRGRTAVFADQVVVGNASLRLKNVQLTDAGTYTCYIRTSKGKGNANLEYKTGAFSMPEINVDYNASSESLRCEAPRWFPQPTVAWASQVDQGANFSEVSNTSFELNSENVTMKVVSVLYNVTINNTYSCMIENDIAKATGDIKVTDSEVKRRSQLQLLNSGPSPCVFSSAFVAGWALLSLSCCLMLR
Assay: HTRF binding, human IgG1-TM
# reported Max; entries follow

BINDER	Max
ZY0EP0-C07 human IgG1-TM (antibody, V domains shown, also called ZY0EPO-C07) VH: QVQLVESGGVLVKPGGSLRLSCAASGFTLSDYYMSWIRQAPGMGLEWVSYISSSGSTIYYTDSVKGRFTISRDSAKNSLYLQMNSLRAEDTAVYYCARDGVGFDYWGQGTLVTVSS VL: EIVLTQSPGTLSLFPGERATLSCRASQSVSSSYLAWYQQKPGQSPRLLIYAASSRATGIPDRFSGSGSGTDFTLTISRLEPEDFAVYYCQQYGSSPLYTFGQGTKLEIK	1250
ZY0EOB-F05 human IgG1-TM (antibody, V domains shown) VH: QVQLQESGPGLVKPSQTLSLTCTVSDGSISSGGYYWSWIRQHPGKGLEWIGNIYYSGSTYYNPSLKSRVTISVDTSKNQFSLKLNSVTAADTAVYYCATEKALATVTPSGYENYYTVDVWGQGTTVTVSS VL: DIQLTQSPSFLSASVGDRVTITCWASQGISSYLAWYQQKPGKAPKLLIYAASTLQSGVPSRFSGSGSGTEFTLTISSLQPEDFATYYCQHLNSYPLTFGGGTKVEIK	1340
ZY0EQD-E02 human IgG1-TM (antibody, V domains shown) VH: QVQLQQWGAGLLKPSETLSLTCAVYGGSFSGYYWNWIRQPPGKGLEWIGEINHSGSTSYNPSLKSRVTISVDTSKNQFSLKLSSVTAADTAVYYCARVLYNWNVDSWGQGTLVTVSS VL: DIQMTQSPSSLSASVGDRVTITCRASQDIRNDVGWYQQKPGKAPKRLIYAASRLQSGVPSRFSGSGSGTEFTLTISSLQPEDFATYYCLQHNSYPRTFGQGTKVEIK	224
ZY0EPQ-E02 human IgG1-TM (antibody, V domains shown) VH: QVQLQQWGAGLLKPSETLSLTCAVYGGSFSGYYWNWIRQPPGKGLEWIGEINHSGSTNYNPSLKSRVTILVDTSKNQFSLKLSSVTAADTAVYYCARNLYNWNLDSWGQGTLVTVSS VL: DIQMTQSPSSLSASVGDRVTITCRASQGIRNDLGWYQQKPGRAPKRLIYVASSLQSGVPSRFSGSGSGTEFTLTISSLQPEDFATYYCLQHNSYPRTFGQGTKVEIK	256
